Exercise: state measured AC50 for each of the compounds provided.
Target: human PAH with the R408W mutation (Homo sapiens, UniProt P00439, R408W)
Construct: expressed in transfected cells
Sequence (P00439 whole entry R408W): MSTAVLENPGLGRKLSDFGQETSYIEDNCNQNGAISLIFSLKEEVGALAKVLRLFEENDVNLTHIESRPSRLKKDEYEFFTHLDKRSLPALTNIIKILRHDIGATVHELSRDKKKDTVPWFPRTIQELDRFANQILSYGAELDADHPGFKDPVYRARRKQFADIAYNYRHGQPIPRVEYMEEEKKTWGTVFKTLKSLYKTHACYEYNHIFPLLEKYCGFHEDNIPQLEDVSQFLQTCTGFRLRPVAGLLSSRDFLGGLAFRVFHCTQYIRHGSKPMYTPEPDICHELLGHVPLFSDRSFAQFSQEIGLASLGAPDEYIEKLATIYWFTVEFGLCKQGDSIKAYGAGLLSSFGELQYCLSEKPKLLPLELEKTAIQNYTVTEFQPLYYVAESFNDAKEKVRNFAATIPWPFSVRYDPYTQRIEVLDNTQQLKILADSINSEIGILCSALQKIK
Assay: Cell Based Phenylalanine Flux Assay;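 note: after compound treatment, cells received sepiapterin plus isotope-labelled Phenylalanine for 4 hours, then labelled Tyrosine in the medium was quantified, 10-point 2-fold dilution series run in duplicate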
Settings: A375 cells expressing human R408W PAH; 24 hrs compound incubation; 13C-Tyrosine by LC-MS; average where tested multiple times; read-out: AC50

In plain terms, Cc1cccc(-c2nnc(C(=O)N3CCc4[nH]cnc4[C@@H]3c3cc4ccccn4n3)o2)n1 has a documented AC50 of > 5000 nM

In plain terms, CC(C)(O)c1nc(C(F)(F)F)c(C(=O)N2CCc3[nH]cnc3[C@@H]2c2cc3c(F)cccn3n2)o1 has a documented AC50 of 1000 to 5000 nM

In plain terms, Cc1cnn(C)c1-c1nnc(C(=O)N2CCc3[nH]cnc3[C@H]2c2cc3c(F)cccn3n2)o1 has a documented AC50 of < 500 nM

In plain terms, Cc1nnc(C(=O)N2CCc3[nH]cnc3[C@H]2c2cc3c(C(F)F)cccn3n2)o1 has a documented AC50 of 500 to 1000 nM

In plain terms, CC(C)(O)c1nc(C(F)F)c(C(=O)N2CCc3[nH]cnc3[C@@H]2c2cc3cc(F)ccn3n2)o1 has a documented AC50 of 1000 to 5000 nM

In plain terms, Cc1nc(C(C)(C)F)oc1C(=O)N1CCc2[nH]cnc2[C@H]1c1cc2ccccn2n1 has a documented AC50 of < 500 nM

In plain terms, O=C(c1nnc(C2CC2)o1)N1CCc2[nH]cnc2[C@H]1c1cc2ccccn2n1 has a documented AC50 of 1000 to 5000 nM

In plain terms, O=C(c1nnc(-c2ncccn2)o1)N1CCc2[nH]cnc2[C@@H]1c1cc2c(F)cccn2n1 has a documented AC50 of 1000 to 5000 nM

In plain terms, CC1(c2nnc(C(=O)N3CCc4[nH]cnc4[C@H]3c3cc4ccccn4n3)o2)CC1 has a documented AC50 of < 500 nM

In plain terms, COc1ccc2c(C(=O)N3CCc4[nH]cnc4[C@@H]3c3cc4c(Cl)cccn4n3)cnn2c1 has a documented AC50 of > 5000 nM

In plain terms, Cc1ccc2c(C(=O)N3CCc4[nH]cnc4[C@H]3c3cc4c(Cl)cccn4n3)cnn2c1 has a documented AC50 of < 500 nM

In plain terms, Cn1ccc(-c2nnc(C(=O)N3CCc4[nH]cnc4[C@@H]3c3cc4c(F)cccn4n3)o2)n1 has a documented AC50 of > 5000 nM

In plain terms, Cc1cccn2nc([C@@H]3c4nc[nH]c4CCN3C(=O)c3nnc(-c4ccccn4)o3)cc12 has a documented AC50 of < 500 nM

In plain terms, CC(C)(C)c1nnc(C(=O)N2CCc3[nH]cnc3[C@H]2c2cc3c(F)cccn3n2)o1 has a documented AC50 of < 500 nM

In plain terms, Cc1ncccc1-c1nnc(C(=O)N2CCc3[nH]cnc3[C@H]2c2cc3cccc(Cl)n3n2)o1 has a documented AC50 of < 500 nM

In plain terms, O=C(c1ccnn1C(F)(F)F)N1CCc2[nH]cnc2[C@H]1c1cc2ccccn2n1 has a documented AC50 of < 500 nM
